assay: Selectivity index, ratio of IC50 for rat L6 cells to IC50 for bloodstream form of Trypanosoma brucei rhodesiense STIB 900; type: toxicity, cell-based; settings: read-out: Ratio IC50
# Lookup of reported selectivity ratio keyed by entry
Lab note: jot the number down without any unit.

These recorded examples may help you get a feel for the data.
molecule	selectivity ratio
c1ccc(C2CC3(N4CCCCC4)CCN(CCCN4CCCCC4)C2C(c2ccccc2)C3)cc1 (racemic)	7.5
CCN(CC)CCCN1CCC2(N3CCN(C)CC3)CC(c3ccccc3)C1C(c1ccccc1)C2 (racemic)	26.6
CN1CCN(C23CC(NC(=O)CN4CCCC4)C(C(c4ccccc4)C2)C(c2ccccc2)C3)CC1 (racemic)	111
c1ccc(C2CC3(N4CCCCC4)CC(NCCCN4CCCC4)C2C(c2ccccc2)C3)cc1 (racemic)	13.4

Exam item: Which selectivity ratio value is on record for CN1CCN(C23CC(NC(=O)CN4CCCCC4)C(C(c4ccccc4)C2)C(c2ccccc2)C3)CC1 (racemic) ?
Marked response: 235

Exam item: Now give it for CN1CCN(C23CCN(CCCN4CCCC4)C(C(c4ccccc4)C2)C(c2ccccc2)C3)CC1 (racemic) too.
Marked response: 16.8

Source of measurements: ChEMBL document CHEMBL2412993
